Test system: NCI-H295R
EXPERIMENTAL_PROTOCOL: area under concentration-response curve (viability) (AUC (a.u.)); higher = less active
CONDITION_DETAILS: 48 h
MEASURED_METRIC: area under concentration-response curve

Sample answers from the record:
- COMPOUND: "CC(C)OC(=O)[C@H](C)N[P@](=O)(OC[C@H]1O[C@@H](N2\\C=C/C(=O)NC2=O)[C@](C)(F)[C@@H]1O)OC3=CC=CC=C3"
  area under concentration-response curve: 386
- COMPOUND: "CCc1nc(N)nc(N)c1-c1ccc(Cl)cc1"
  area under concentration-response curve: 521
- COMPOUND: "O=C1\\C=C(OC2=C(C=CC=C12)C3=CC=CC4=C3SC5=C4C=CC=C5)\\N6CCOCC6"
  area under concentration-response curve: 497

area under concentration-response curve for `CN(NC(=O)CC(=O)NN(C)C(=S)c1ccccc1)C(=S)c1ccccc1` ? 521

For the compound `CCCOc1ccc(CCc2nc3cc(-c4c(C)noc4C)ccc3n2CCN2CCOCC2)cc1` , what area under concentration-response curve is on record? 479

Entry `CC(C)(C)C1=CC(=C(NC(=O)C/2=C/NC3=C(C=CC=C3)C2=O)C=C1O)C(C)(C)C` : reported area under concentration-response curve = ? 426

Given the entry `NC(=O)Nc1cc(-c2ccc(CN3CCOCC3)cc2)sc1C(N)=O` , report its measured area under concentration-response curve. 519

Reported area under concentration-response curve for `O=C(O)CCNc1cc(N2CCc3ccccc3CC2)nc(-c2ccccn2)n1` : what is it? 490
